experiment: chemical genetic growth profiling, strain panel (AID 1159580);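 also: tested at 20 µM; growth read once vehicle control cultures reached saturation at 30 °C; lower values mean less growth of the strain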; settings: S. cerevisiae deletion strains, growth OD, locus YLR403W, strain SFP1, hits give low values
Screen size: about 5,500 compounds; about 2,000 (36%) were called active. About 18% were inconclusive and are not listed. The list shows a part of the results.
Lab note - cut at 0.8 for normalized growth: Condition met if strictly below, Condition not met if not.

structure: S=c1[nH]nc(Nc2ccc(I)cc2)s1
group: Condition met
--
structure: CC(=O)ON=C1c2cc([N+](=O)[O-])ccc2-c2ccc([N+](=O)[O-])cc21
group: Condition met
--
structure: COC(=O)c1sccc1-c1ccc(/C=C/[N+](=O)[O-])o1
group: Condition met
--
structure: O=C(Nc1ccc(OC(F)(F)F)cc1)OC1CN(C(c2ccccc2)c2ccccc2)C1
group: Condition not met
--
structure: FC(F)(F)c1cccc(-n2c(CSCc3cccc4ccccc34)n[nH]c2=S)c1
group: Condition not met

## Input Hello, I'm reviewing records and need to know if normalized growth of `ClC1=C(C=Nc2ccc(Cl)cc2)CSc2ccc(Cl)cc21` is below 0.8. Could you check?
## Output Condition not met

###

assay: chemical genetic growth profiling, strain panel (AID 1159580);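 also: tested at 20 µM; growth read once vehicle control cultures reached saturation at 30 °C; lower values mean less growth of the strain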; conditions: S. cerevisiae deletion strains, growth OD, locus YBL105C, strain PKC1
Among all 5,500 compounds or so, about 2,000 (36%) were called active. Another 18% or so got no clear call; they are omitted. Rule as the data show it: active = normalized growth mostly below about 0.91 (no sharp cut-off); inconclusive = no clear call, values can overlap the other calls; inactive = mostly above about 0.92. The list shows a part of the results.
The reply should be one of these categories: active, inactive

molecule: Cc1c(C(=S)Nc2ccccc2)sc2ccccc12
group: inactive
--
molecule: CC(=O)Nc1ccc(S(=O)(=O)Nc2ccccc2Oc2ccc(Cl)cc2Cl)cc1
group: inactive
--
molecule: S=c1[nH]nc(Nc2ccc(I)cc2)s1
group: active
--
molecule: O=[N+]([O-])c1ccc(Sc2ssc(=S)c2-c2ccccc2)nc1
group: inactive
--
molecule: Cc1onc(-c2c(F)cccc2Cl)c1C(=O)ON=C1C2CC3CC(C2)CC1C3
group: active

## Input Just curious, what result did `Cc1onc(-c2c(Cl)cccc2Cl)c1C(=O)NC(C)(C)CC(C)(C)C` get here?
## Output inactive

## Input Just curious, what result did `CC(C)(C)c1ccc(C(=O)NNc2c(Cl)cccc2Cl)cc1` get here?
## Output inactive

## Input Just curious, what result did `CC(C)(CCC(C)(C)N1C(=O)c2cccc3cccc(c23)C1=O)N1C(=O)c2cccc3cccc(c23)C1=O` get here?
## Output active

## Input Just curious, what result did `O=C(NNc1ccc(I)cc1)c1cc(Cl)cc(Cl)c1` get here?
## Output inactive

## Input Just curious, what result did OC(CN1CCN(c2nc3ccc(Cl)cc3s2)CC1)Cn1ccc2ccccc21 (configuration not stated) get here?
## Output inactive

## Input Just curious, what result did `O=C(/C=C/Sc1nc2ccccc2s1)c1ccc(Cl)cc1` get here?
## Output inactive

## Input Just curious, what result did `ClC1=C(C=Nc2ccc(Cl)cc2)CSc2ccc(Cl)cc21` get here?
## Output inactive

###

assay: chemical genetic growth profiling, strain panel (AID 1159580);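 also: tested at 20 µM; growth read once vehicle control cultures reached saturation at 30 °C; lower values mean less growth of the strain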; conditions: S. cerevisiae deletion strains, growth OD, locus YOR270C, strain vph1
Hit rate of the full screen: of about 5,500 compounds, about 2,000 (36%) were called active. Roughly 18% stayed inconclusive and do not appear here. Rule as the data show it: active = normalized growth mostly below about 0.91 (no sharp cut-off); inconclusive = no clear call, values can overlap the other calls; inactive = mostly above about 0.92. Some of the results follow.
The reply should be one of these categories: active, inactive

Would you please look over these solved cases?
molecule: CC(C)(C)CC(C)(C)c1ccc(O)c(Cc2ccc(Cl)cc2Cl)c1
group: active
//
molecule: Nc1ccn(C2O[C@H](CO)[C@@H](O)[C@@H]2O)c(=O)n1 (stereo partly specified)
group: inactive
//
molecule: CC(C)C(C)/C=C/C(C)C1CCC2C3=CC=C4CC(O)CCC4(C)C3CCC21C (stereo unspecified)
group: active

## Input Just curious, what result did `COc1cc2occ(-c3ccccc3)c(=O)c2c(OC)c1C` get here?
## Output inactive

## Input Just curious, what result did `O=C(O)CN1C(=O)c2cccc3cccc(c23)C1=O` get here?
## Output inactive

## Input Just curious, what result did `COc1cc(OC)c2c(=O)c(-c3ccccc3)coc2c1` get here?
## Output active

## Input Just curious, what result did CC(C)C(C)/C=C/C(C)[C@H]1CCC2C3=CCC4CC(=O)CC[C@]4(C)C3CC[C@@]21C (stereo partly specified) get here?
## Output inactive

## Input Just curious, what result did `O=c1cc[nH]c(=S)[nH]1` get here?
## Output inactive

## Input Just curious, what result did `Oc1ccc(Cl)cc1Cc1cc(Cl)ccc1O` get here?
## Output active

## Input Just curious, what result did CC(=O)OC1CCC2(C)C(=CC=C3C2CCC2(C)C3CCC2C(C)/C=C/C(C)C(C)C)C1(C)C (stereo unspecified) get here?
## Output inactive

## Input Just curious, what result did COc1ccc2c(c1OC)C(=O)OC2[C@H]1c2c(cc3c(c2OC)OCO3)CCN1C (stereo partly specified) get here?
## Output inactive

Hey, just so you know, these numbers are from PubChem BioAssay AID1159580.
